- method-summary: AP1 Signaling Pathway (AID 357);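 further: ME-180 reporter cells stimulated with EGF at its EC50 level; on the % scale 0 is the no-effect control and ±100 the full control effect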
- measurement-context: ME-180 (cervical carcinoma) AP-1-bla reporter, EGF-induced, beta-lactamase ratio, 5 h; at 7.69 µM (top of the series) unless noted
Inconclusive results are not listed. Calls of active or inactive are those of the source. The call rests on the fitted dose curve; in most records, active means well fitted curve in either direction with a large enough effect (not every such curve was filed as active); inconclusive means small, poorly fitted or top-dose-only effect, or another doubt; inactive means flat fitted curve, though single readings scatter.
Assign activity change, negative = inhibition to each entry below.

Provide activity change, negative = inhibition value for the following compound: "O=C(c1cnccn1)N1CCC[C@@]2(CCN(Cc3ccncc3)C2)C1"
-3.77% (inactive)

Provide activity change, negative = inhibition value for the following compound: "O=c1c(-c2cccs2)nc2cnc(Oc3ccccc3)nc2n1Cc1cccs1"
-14% (inactive)

Provide activity change, negative = inhibition value for the following compound: "CC(C)NC(=O)N1CCC2(CC1)CCN(C(=O)c1cccn1C)CC2"
15.2% (inactive)

Provide activity change, negative = inhibition value for the following compound: "Cc1noc(C)c1C(=O)N1CCC2(CCCN(C(=O)Nc3cccc(C#N)c3)C2)CC1"
-3.54% (inactive)

Provide activity change, negative = inhibition value for the following compound: "COc1ccc(CNc2ncncc2-c2ccoc2)c(OC)c1"
-9.49% (inactive)

Provide activity change, negative = inhibition value for the following compound: "Cc1cnc(CNc2cc(-c3cccc(C#N)c3)ncn2)cn1"
8.07% (inactive)

Provide activity change, negative = inhibition value for the following compound: "CCC[C@H]1C(=O)N2C(N(C)C)=Nc3ccc(C)cc3N2C1=O"
1.43% [at 17.2 µM] (inactive)

Provide activity change, negative = inhibition value for the following compound: "O=c1c(-c2ccc(F)cc2)nc2cnc(Nc3ccccc3)nc2n1C1CC1"
-14% (inactive)

Provide activity change, negative = inhibition value for the following compound: "FC(F)(F)c1ccccc1-c1cncnc1Nc1ccccc1"
-9.67% (inactive)

Provide activity change, negative = inhibition value for the following compound: "COc1ccccc1CNc1nc(-c2ccccc2OC)nc2ccccc12"
6.17% (inactive)

Provide activity change, negative = inhibition value for the following compound: "c1ccc(-c2cccc(N3CCC4(CCNCC4)CC3)c2)cc1"
-2.96% (inactive)

Provide activity change, negative = inhibition value for the following compound: "COc1ccccc1-c1cncnc1NCc1cccc(C)c1"
-3.97% (inactive)

Provide activity change, negative = inhibition value for the following compound: "Cc1cnc(CNc2cc(-c3c(C)noc3C)ncn2)cn1"
23.4% (inactive)

Provide activity change, negative = inhibition value for the following compound: "COc1ccc(-n2c(=O)c(-c3ccccc3)nc3cncnc32)cc1"
-26.7% (inactive)

Provide activity change, negative = inhibition value for the following compound: "CC(=O)N1CCC[C@@]2(CCN(Cc3nccs3)C2)C1"
1.66% (inactive)

Provide activity change, negative = inhibition value for the following compound: "COCC(=O)N1CCC2(CC1)CN(Cc1nccs1)C2"
-21.4% (inactive)

Provide activity change, negative = inhibition value for the following compound: "COc1ncc2nc(CCc3ccccc3)c(=O)n(Cc3ccc(F)cc3)c2n1"
-3.95% (inactive)

Provide activity change, negative = inhibition value for the following compound: "COc1ccc(NC(=O)N2CCCC3(CCN(C(=O)c4ccncc4)CC3)C2)cc1"
-8.03% (inactive)

Provide activity change, negative = inhibition value for the following compound: "CN(N=O)C(=O)N[C@H]1[C@@H](O)[C@H](O)[C@H](CO)O[C@@H]1O"
22% [at 17.2 µM] (inactive)

Provide activity change, negative = inhibition value for the following compound: "CN(C)c1ccc(-c2cncnc2NCc2ccccc2)cc1"
-0.796% (inactive)

Provide activity change, negative = inhibition value for the following compound: "O=C(Oc1ccccc1)N1CCC[C@@]2(CCN(c3ccccn3)C2)C1"
7.28% (inactive)

Provide activity change, negative = inhibition value for the following compound: "CC(=O)N1CCC[C@@]2(CCN(c3ccccc3)C2)C1"
-11% (inactive)

Provide activity change, negative = inhibition value for the following compound: "O=C(c1ccco1)N1CCC[C@@]2(CCN(c3cccc(-c4ccccc4)c3)C2)C1"
-1.52% (inactive)

Provide activity change, negative = inhibition value for the following compound: "COc1ncc2nc(-c3cc(F)cc(F)c3)c(=O)n(Cc3cccs3)c2n1"
14.2% (inactive)

Provide activity change, negative = inhibition value for the following compound: "CCNc1ncc2nc(-c3cccs3)c(=O)n(C[C@H]3CCCO3)c2n1"
9.48% (inactive)

Provide activity change, negative = inhibition value for the following compound: "COc1ccccc1-c1cncnc1NCc1cnc(C)cn1"
-7.64% (inactive)

Provide activity change, negative = inhibition value for the following compound: "COc1ccccc1CN1CCCC2(CCN(C(=O)c3cc(C(F)(F)F)cc(C(F)(F)F)c3)CC2)C1"
16.7% (inactive)

Provide activity change, negative = inhibition value for the following compound: "CN1CCC2(CC1)CCN(S(=O)(=O)c1ccccc1)CC2"
-4.78% (inactive)

Provide activity change, negative = inhibition value for the following compound: "CS(=O)(=O)N1CCC2(CCCN(C(c3ccccc3)c3ccccc3)C2)CC1"
-6.2% (inactive)

Provide activity change, negative = inhibition value for the following compound: "FC(F)(F)c1ccccc1-c1cncnc1NCc1cccs1"
10.5% (inactive)

Provide activity change, negative = inhibition value for the following compound: "COc1ccccc1CNc1ccnc(-c2ccc(C(=O)N(C)C)cc2)n1"
-10.9% (inactive)

Provide activity change, negative = inhibition value for the following compound: "CC[C@@]12CCCN3CCc4c(n(c5ccccc45)[C@](O)(C(=O)OC)C1)[C@H]32"
13.8% [at 17.2 µM] (inactive)

Provide activity change, negative = inhibition value for the following compound: "Clc1ccccc1-c1cc(NCc2cccnc2)ncn1"
-5.3% (inactive)

Provide activity change, negative = inhibition value for the following compound: "O=C(c1cccc(F)c1)N1CCC2(CCN(Cc3ccncc3)CC2)CC1"
-25.9% (inactive)

Provide activity change, negative = inhibition value for the following compound: "CN[C@@H]1[C@H](O[C@@H]2O[C@H](CO)[C@@H](N)[C@H](O)[C@@H]2O)O[C@H]2C[C@@H](N)[C@@H](O[C@H]3[C@@H](O)[C@H](O)[C@H](N)C[C@@H]3N)O[C@H]2[C@H]1O"
3.97% [at 17.2 µM] (inactive)

Provide activity change, negative = inhibition value for the following compound: "O=C(c1cnccn1)N1CCC2(CCCN(Cc3nccs3)C2)CC1"
-20.7% (inactive)

Provide activity change, negative = inhibition value for the following compound: "COCC(=O)N1CCC2(CCCN(c3ccc(-c4ccccc4)cc3)C2)CC1"
-7.31% (inactive)

Provide activity change, negative = inhibition value for the following compound: "COc1ccc(C(=O)N2CCC[C@@]3(CCN(c4ncccn4)C3)C2)cc1"
-20.4% (inactive)

Provide activity change, negative = inhibition value for the following compound: "COc1ccc2[nH]cc(CCNc3ncnc4ccc(-c5ccc(C(=O)N(C)C)cc5)cc34)c2c1"
-28% (inactive)

Provide activity change, negative = inhibition value for the following compound: "CC(C)CN1CC[C@@]2(CCCN(C(=O)c3cc(C(F)(F)F)cc(C(F)(F)F)c3)C2)C1"
-5.91% (inactive)

Provide activity change, negative = inhibition value for the following compound: "N#Cc1cccc(NC(=O)N2CC[C@@]3(CCCN(C(=O)c4cc(C(F)(F)F)cc(C(F)(F)F)c4)C3)C2)c1"
3.48% (inactive)

Provide activity change, negative = inhibition value for the following compound: "COc1ccc(-c2nc3cnc(OC)nc3n(-c3ccccc3)c2=O)cc1"
-6.09% (inactive)

Provide activity change, negative = inhibition value for the following compound: "COc1ccc(CNc2ccnc(-c3cccnc3)n2)c(OC)c1"
-5.2% (inactive)

Provide activity change, negative = inhibition value for the following compound: "COc1ccc2[nH]cc(CCNc3nc(-c4cccnc4)nc4ccccc34)c2c1"
-14.3% (inactive)

Entry source: PubChem BioAssay (NCATS)
